Tested on: SMMC-7721 (human liver cancer)
Test: MTT antiproliferative assay, SMMC-7721
Format: cell-based
Conditions: 72 h, mean ± SD
Method: Data represent the mean values ± standard deviation (SD) of independent experiments performed in triplicate. All of the cells were purchased from the American Type Culture Collection (ATCC, Manassas, VA). The antiproliferative activities in vitro of Crolibulin and all the target compounds were determined by an MTT assay. […] The plates were gently agitated until the purple formazan crystals were dissolved, and the OD490 was determinedusing a microplate reader (MK3, Thermo, Germany). […]
Assign labels as follows, please: Condition met for IC50 below 40 µM; Condition not met for IC50 equal to or exceeding 40 µM.

Use these answered entries as a reference point.
                                   molecule  assigned_category
0  N#Cc1c(-c2ccccc2Cl)cc(-c2c[nH]c3ccccc23)n2ccnc12 [5f]      Condition met
1  COc1cccc(-c2cc(-c3c[nH]c4ccccc34)n3ccnc3c2C#N)c1 [5c]  Condition not met
2  COc1ccc(/C=C\c2cc(OC)c(OC)c(OC)c2)cc1O [CA-4, Combretastatin A-4, reference compound]      Condition met

Hello, I'm reviewing records and need to know if IC50 of COc1cc(-c2cc(-c3c[nH]c4ccccc34)n3ccnc3c2C#N)c(Br)cc1O [5n] is below 40 µM. Could you check?
Condition not met

Hello, I'm reviewing records and need to know if IC50 of CC(C)NCc1cn2c(-c3c[nH]c4ccccc34)cc(-c3ccc(F)cc3Cl)c(C#N)c2n1 [7c] is below 40 µM. Could you check?
Condition met

Hello, I'm reviewing records and need to know if IC50 of CNCc1cn2c(-c3c[nH]c4ccccc34)cc(-c3ccc(F)cc3Cl)c(C#N)c2n1 [7a] is below 40 µM. Could you check?
Condition met

Hello, I'm reviewing records and need to know if IC50 of N#Cc1c(-c2ccc(Br)cc2)cc(-c2c[nH]c3ccc(Br)cc23)n2ccnc12 [5u] is below 40 µM. Could you check?
Condition not met

Hello, I'm reviewing records and need to know if IC50 of N#Cc1c(-c2ccc(F)cc2F)cc(-c2c[nH]c3ccccc23)n2ccnc12 [5i] is below 40 µM. Could you check?
Condition met

Hello, I'm reviewing records and need to know if IC50 of N#Cc1c(-c2ccc(Br)cc2)cc(-c2c[nH]c3ccccc23)n2ccnc12 [5h] is below 40 µM. Could you check?
Condition not met

Hello, I'm reviewing records and need to know if IC50 of N#Cc1c(-c2ccccc2)cc(-c2c[nH]c3ccc(Br)cc23)n2ccnc12 [5r] is below 40 µM. Could you check?
Condition not met

Hello, I'm reviewing records and need to know if IC50 of N#Cc1c(-c2ccccc2Cl)cc(-c2c[nH]c3ccc(Br)cc23)n2ccnc12 [5t] is below 40 µM. Could you check?
Condition not met

====

Examples of molecules with documented melting point follow.

                                   molecule             result
0  N#Cc1c(-c2ccccc2)cc(-c2c[nH]c3ccc(Br)cc23)n2ccnc12 [5r]  337.9 to 342.4 °C

Item N#Cc1c(-c2ccccc2Cl)cc(-c2c[nH]c3ccc(Br)cc23)n2ccnc12 [5t] has what recorded melting point?
302.2 to 306.8 °C

Item COc1ccc(-c2cc(-c3c[nH]c4ccccc34)n3ccnc3c2C#N)cc1 [5d] has what recorded melting point?
294.7 to 295.5 °C
